All values here come from patent US10512665B2.

Tested on: HXB2 strain
Experiment: Single-cycle viral infectivity (viral entry) assay, HXB2 strain
Conditions: read-out: IC50, inhibition of viral entry; HXB2
Assay metric: IC50 (nM)
One number for each entry, in nM.

KGACDYKEWQWLCAA [PIE8] | 1680
KGACDYPEWRWLCAA [PIE2] | 1320

input: // fetch IC50 given entry KGACDYPEWQWLCAA [PIE7]
output: 620
